- Test system: Streptococcus pneumoniae IMC B-1231 (PRSP)
- procedureDetails: Antimicrobial activity test (MIC), clinical isolate IMC B-1231
- Assay type: cell-based
- experimentalSetup: PRSP clinical isolate IMC B-1231
reportedMetric: MIC

C=CCOCC1C=C(C)C=CC(=O)C(C)CC(CC=O)C(OC2OC(C)CC(N(C)C)C2O)C(C)CCC(=O)OC1CC (stereo not shown); 3.13 µg/mL
CCC1OC(=O)CCC(C)C(OC2OC(C)CC(N(C)C)C2O)C(CC=O)CC(C)C(=O)C=CC(C)=CC1CSc1ncccn1 (stereo not shown); 0.39 µg/mL
CCC1OC(=O)CCC(C)C(OC2OC(C)CC(N(C)C)C2O)C(CC=O)CC(C)C(=O)C=CC(C)=CC1CN=[N+]=[N-] (stereo not shown); 25 µg/mL
CCC1OC(=O)CCC(C)C(OC2OC(C)CC(N(C)C)C2O)C(CC=O)CC(C)C(=O)C=CC(C)=CC1COC(C)=O (stereo not shown); 0.39 µg/mL

====

- System: Streptococcus pneumoniae IMC B-1234 (PRSP)
- procedureDetails: Antimicrobial activity test (MIC), clinical isolate IMC B-1234
- Format: cell-based
- experimentalSetup: Streptococcus pneumoniae IMC B-1234, PRSP
Attribute: MIC
reportedMetric: MIC

CCC1OC(=O)CCC(C)C(OC2OC(C)CC(N(C)C)C2O)C(CC=O)CC(C)C(=O)C=CC(C)=CC1COC(=O)NCc1ccc(OC)cc1 (stereo not shown); 0.1 µg/mL
CC=CC=CC(=O)OCC1C=C(C)C=CC(=O)C(C)CC(CC=O)C(OC2OC(C)CC(N(C)C)C2O)C(C)CCC(=O)OC1CC (stereo not shown); 0.10 µg/mL
CCC1OC(=O)CCC(C)C(OC2OC(C)CC(N(C)C)C2O)C(CC=O)CC(C)C(=O)C=CC(C)=CC1CCl (stereo not shown); 0.20 µg/mL
CCC1OC(=O)CCC(C)C(OC2OC(C)CC(N(C)C)C2O)C(CC=O)CC(C)C(=O)C=CC(C)=CC1CSc1ccccn1 (stereo not shown); <0.025 µg/mL

====

- System: Streptococcus pneumoniae IMC B-0919 (PRSP)
- procedureDetails: Antimicrobial activity test (MIC), clinical isolate IMC B-0919
- Assay type: cell-based
- experimentalSetup: PRSP clinical isolate IMC B-0919
reportedMetric: MIC (µg/mL)

CCC1OC(=O)CCC(C)C(OC2OC(C)CC(N(C)C)C2O)C(CC=O)CC(C)C(=O)C=CC(C)=CC1CN(C)CCc1ccc(OC)c(OC)c1 (stereo not shown) [MKT-6104]; 1.56
CCC1OC(=O)CCC(C)C(OC2OC(C)CC(N(C)C)C2O)C(CC=O)CC(C)C(=O)C=CC(C)=CC1CN(C)C (stereo not shown) [MKT-3101]; 0.78
CCC1OC(=O)CCC(C)C(OC2OC(C)CC(N(C)C)C2O)C(CC=O)CC(C)C(=O)C=CC(C)=CC1COC(=O)NCc1ccc(OC)cc1 (stereo not shown) [MKT-1011]; 0.1
CCC1OC(=O)CCC(C)C(OC2OC(C)CC(N(C)C)C2O)C(CC=O)CC(C)C(=O)C=CC(C)=CC1CN(C)Cc1ccccc1 (stereo not shown) [MKT-3002]; 0.1
CCC1OC(=O)CCC(C)C(OC2OC(C)CC(N(C)C)C2O)C(CC=O)CC(C)C(=O)C=CC(C)=CC1COC(=O)Cc1ccccc1 (stereo not shown) [MKT-2005]; 0.2

====

- Test system: Streptococcus pneumoniae IMC B-1235 (PRSP)
- procedureDetails: Antimicrobial activity test (MIC), clinical isolate IMC B-1235
- Type: cell-based
- experimentalSetup: PRSP clinical isolate IMC B-1235
Attribute: MIC
reportedMetric: MIC (µg/mL)

CCC1OC(=O)CCC(C)C(OC2OC(C)CC(N(C)C)C2O)C(CC=O)CC(C)C(=O)C=CC(C)=CC1CN(C)C (stereo not shown); 25
CCC1OC(=O)CCC(C)C(OC2OC(C)CC(N(C)C)C2O)C(CC=O)CC(C)C(=O)C=CC(C)=CC1CI (stereo not shown); 50
CCC1OC(=O)CCC(C)C(OC2OC(C)CC(N(C)C)C2O)C(CC=O)CC(C)C(=O)C=CC(C)=CC1CN(C)Cc1ccccc1 (stereo not shown); 3.13
CCC1OC(=O)CCC(C)C(OC2OC(C)CC(N(C)C)C2O)C(CC=O)CC(C)C(=O)C=CC(C)=CC1CN=[N+]=[N-] (stereo not shown); 50

====

- System: Streptococcus pneumoniae IMC B-1231 (PRSP)
- procedureDetails: Antimicrobial activity test (MIC), clinical isolate IMC B-1231
- Assay type: cell-based
- experimentalSetup: PRSP clinical isolate IMC B-1231
reportedMetric: MIC (µg/mL)

CCC1OC(=O)CCC(C)C(OC2OC(C)CC(N(C)C)C2O)C(CC=O)CC(C)C(=O)C=CC(C)=CC1CN(C)CCc1ccc(OC)c(OC)c1 (stereo not shown) [MKT-6104]; 50
CCC1OC(=O)CCC(C)C(OC2OC(C)CC(N(C)C)C2O)C(CC=O)CC(C)C(=O)C=CC(C)=CC1CN(C)C (stereo not shown) [MKT-3101]; 12.5
CCC1OC(=O)CCC(C)C(OC2OC(C)CC(N(C)C)C2O)C(CC=O)CC(C)C(=O)C=CC(C)=CC1COC(=O)NCc1ccc(OC)cc1 (stereo not shown) [MKT-1011]; 50
CCC1OC(=O)CCC(C)C(OC2OC(C)CC(N(C)C)C2O)C(CC=O)CC(C)C(=O)C=CC(C)=CC1CN(C)Cc1ccccc1 (stereo not shown) [MKT-3002]; 50
CCC1OC(=O)CCC(C)C(OC2OC(C)CC(N(C)C)C2O)C(CC=O)CC(C)C(=O)C=CC(C)=CC1COC(=O)Cc1ccccc1 (stereo not shown) [MKT-2005]; 0.78
CCC1OC(=O)CCC(C)C(OC2OC(C)CC(N(C)C)C2O)C(CC=O)CC(C)C(=O)C=CC(C)=CC1CNC(C)=O (stereo not shown) [MKT-3201]; 1.56

====

- Test system: Streptococcus pneumoniae IMC B-1235 (PRSP)
- procedureDetails: Antimicrobial activity test (MIC), clinical isolate IMC B-1235
- Assay type: cell-based
- experimentalSetup: Streptococcus pneumoniae IMC B-1235, PRSP
// boundary case: MIC equal to 10 µg/mL maps to NOT MET; strictly smaller maps to MET

CCC1OC(=O)CCC(C)C(OC2OC(C)CC(N(C)C)C2O)C(CC=O)CC(C)C(=O)C=CC(C)=CC1CCl (stereo not shown) [MKT-3007]; NOT MET
CCC1OC(=O)CCC(C)C(OC2OC(C)CC(N(C)C)C2O)C(CC=O)CC(C)C(=O)C=CC(C)=CC1COC(=O)NCc1ccc(OC)cc1 (stereo not shown) [MKT-1011]; MET
CCC1OC(=O)CCC(C)C(OC2OC(C)CC(N(C)C)C2O)C(CC=O)CC(C)C(=O)C=CC(C)=CC1CNC(=O)Cc1cccnc1 (stereo not shown) [MKT-3216]; NOT MET
CCC1OC(=O)CCC(C)C(OC2OC(C)CC(N(C)C)C2O)C(CC=O)CC(C)C(=O)C=CC(C)=CC1CN(C)Cc1ccccc1 (stereo not shown) [MKT-3002]; MET
CC=CC=CC(=O)OCC1C=C(C)C=CC(=O)C(C)CC(CC=O)C(OC2OC(C)CC(N(C)C)C2O)C(C)CCC(=O)OC1CC (stereo not shown) [MKT-2110]; NOT MET
CCC1OC(=O)CCC(C)C(OC2OC(C)CC(N(C)C)C2O)C(CC=O)CC(C)C(=O)C=CC(C)=CC1CSc1ccccn1 (stereo not shown) [MKT-3003]; MET
CCC1OC(=O)CCC(C)C(OC2OC(C)CC(N(C)C)C2O)C(CC=O)CC(C)C(=O)C=CC(C)=CC1CN1CCC(CCO)CC1 (stereo not shown) [MKT-6113]; NOT MET

====

- Tested on: Streptococcus pneumoniae IMC B-1236 (PRSP)
- procedureDetails: Antimicrobial activity test (MIC), clinical isolate IMC B-1236
- Format: cell-based
- experimentalSetup: PRSP clinical isolate IMC B-1236
reportedMetric: MIC (µg/mL)

CCC1OC(=O)CCC(C)C(OC2OC(C)CC(N(C)C)C2O)C(CC=O)CC(C)C(=O)C=CC(C)=CC1CN=[N+]=[N-] (centres unmarked) [MKT-3004]; 50
CCC1OC(=O)CCC(C)C(OC2OC(C)CC(N(C)C)C2O)C(CC=O)CC(C)C(=O)C=CC(C)=CC1CN(C)C (centres unmarked) [MKT-3101]; 50
CCC1OC(=O)CCC(C)C(OC2OC(C)CC(N(C)C)C2O)C(CC=O)CC(C)C(=O)C=CC(C)=CC1CNC(=O)c1ccccc1 (centres unmarked) [MKT-3202]; 6.25
CCC1OC(=O)CCC(C)C(OC2OC(C)CC(N(C)C)C2O)C(CC=O)CC(C)C(=O)C=CC(C)=CC1COC(C)=O (centres unmarked) [MKT-2002]; 12.5
CCC1OC(=O)CCC(C)C(OC2OC(C)CC(N(C)C)C2O)C(CC=O)CC(C)C(=O)C=CC(C)=CC1CI (centres unmarked) [MKT-3001]; 25
CCC1OC(=O)CCC(C)C(OC2OC(C)CC(N(C)C)C2O)C(CC=O)CC(C)C(=O)C=CC(C)=CC1CN (centres unmarked) [MKT-3005]; 100
CCC1OC(=O)CCC(C)C(OC2OC(C)CC(N(C)C)C2O)C(CC=O)CC(C)C(=O)C=CC(C)=CC1CN(C)CCc1ccc(OC)c(OC)c1 (centres unmarked) [MKT-6104]; 25
CCC1OC(=O)CCC(C)C(OC2OC(C)CC(N(C)C)C2O)C(CC=O)CC(C)C(=O)C=CC(C)=CC1CSc1ncccn1 (centres unmarked) [MKT-3802]; 12.5
CCC1OC(=O)CCC(C)C(OC2OC(C)CC(N(C)C)C2O)C(CC=O)CC(C)C(=O)C=CC(C)=CC1CN(C)Cc1ccccc1 (centres unmarked) [MKT-3002]; 3.13
CCC1OC(=O)CCC(C)C(OC2OC(C)CC(N(C)C)C2O)C(CC=O)CC(C)C(=O)C=CC(C)=CC1CSc1ccccn1 (centres unmarked) [MKT-3003]; 1.56
C=CCOCC1C=C(C)C=CC(=O)C(C)CC(CC=O)C(OC2OC(C)CC(N(C)C)C2O)C(C)CCC(=O)OC1CC (centres unmarked) [MKT-3701]; 12.5
CCC1OC(=O)CCC(C)C(OC2OC(C)CC(N(C)C)C2O)C(CC=O)CC(C)C(=O)C=CC(C)=CC1CNC(C)=O (centres unmarked) [MKT-3201]; 50
CCC1OC(=O)CCC(C)C(OC2OC(C)CC(N(C)C)C2O)C(CC=O)CC(C)C(=O)C=CC(C)=CC1COC(=O)NCc1ccc(OC)cc1 (centres unmarked) [MKT-1011]; 1.56
CCC1OC(=O)CCC(C)C(OC2OC(C)CC(N(C)C)C2O)C(CC=O)CC(C)C(=O)C=CC(C)=CC1COC(=O)Cc1ccccc1 (centres unmarked) [MKT-2005]; 3.13
